assay: Toxicity test of repeated oral administration for 9 days in rats; details: rat, in vivo, read-out: NOAEL (No Observed Adverse Effect Level) dose
Readout: NOAEL at 9 days (mg/kg/day)
I only need the number, in mg/kg/day, no unit after it.

Sample `C/C=C/C[C@@H](C)[C@@H](O)[C@H]1C(=O)N[C@@H](CC)C(=O)N(C)[C@H](SCCN(C)C)C(=O)N(C)[C@@H](CC(C)(C)O)C(=O)N[C@@H](C(C)C)C(=O)N(C)[C@@H](CC(C)C)C(=O)N[C@@H](C)C(=O)N[C@H](C)C(=O)N(C)[C@@H](CC(C)C)C(=O)N(C)[C@@H](CC(C)C)C(=O)N(C)[C@@H](C(C)C)C(=O)N1C` — what was its NOAEL at 9 days?
80
